Tested on: ACHN renal
PROCEDURE DETAILS: NCI tumour cell line growth inhibition, 48 h
The compounds listed here are annotated with their TGI.

COMPOUND: O=C(NCCC1CNc2ccccc21)OCc1ccccc1 (stereo not given)
EXPERIMENTAL TARGET: ACHN renal
TGI: > 100 µM
--
COMPOUND: O=C(CCCC(=O)Nc1ccc(Cl)cc1Cl)CC(=O)c1ccc2ccccc2c1
EXPERIMENTAL TARGET: ACHN renal
TGI: > 100 µM
--
COMPOUND: CNCc1ccc(-c2cc(-c3nc(-c4ccc(S(=O)(=O)C(C)C)cc4)cnc3N)on2)cc1
EXPERIMENTAL TARGET: ACHN renal
TGI: 10.9 µM
--
COMPOUND: COC(=O)c1c(C)cccc1/C=C1\Cc2ccc(C)c(C)c2C1=O
EXPERIMENTAL TARGET: ACHN renal
TGI: > 100 µM
--
COMPOUND: CCOC(=O)c1c2c(n(-c3ccc(C)cc3)c1C)-c1ccccc1C(=O)C2(C(=O)OCC)C(=O)OCC
EXPERIMENTAL TARGET: ACHN renal
TGI: > 100 µM
--
COMPOUND: O=C1c2ccccc2C(=O)c2c(NC3CCCCC3)ccc(Nc3ccc(S(=O)(=O)O)cc3)c21
EXPERIMENTAL TARGET: ACHN renal
TGI: > 100 µM
--
COMPOUND: COC(=O)[C@@H]1CO[C@H](C(C)(C)C)N1C(=O)N1C=CC(=O)C[C@H]1C
EXPERIMENTAL TARGET: ACHN renal
TGI: > 100 µM
--
COMPOUND: O=C(NCCN(CCNC(=O)c1cccc(O)c1O)CCNC(=O)c1cccc(O)c1O)c1cccc(O)c1O
EXPERIMENTAL TARGET: ACHN renal
TGI: > 67.7 µM
--
COMPOUND: COc1cc(/C=C2\NC(=O)C(Cc3cc(OC)c(OC)c(C)c3OC)N(C(C)=O)C2=O)c(OC)c(C)c1OC (stereo not given)
EXPERIMENTAL TARGET: ACHN renal
TGI: > 100 µM
--
COMPOUND: Oc1c(N2CCCCC2)cc(-c2cc(N3CCCCC3)c(O)c3ccccc23)c2ccccc12
EXPERIMENTAL TARGET: ACHN renal
TGI: > 100 µM
--
COMPOUND: CCO/C=C1\SC(=S)N(c2ccc(OCC)cc2)C1=O
EXPERIMENTAL TARGET: ACHN renal
TGI: > 100 µM
--
COMPOUND: CCOC(=O)C1(C)CCC(C(C(=O)O)C(=O)O)CC1=O (stereo not given)
EXPERIMENTAL TARGET: ACHN renal
TGI: > 100 µM
--
COMPOUND: COc1ccc(OC)c2sc(N3C(=O)/C(=C/c4cccc(Oc5ccccc5)c4)N=C3c3ccccc3)nc12
EXPERIMENTAL TARGET: ACHN renal
TGI: > 100 µM
--
COMPOUND: COc1ccccc1C1c2cc3c(cc2OC2(OC)COC(=O)C12)OCO3 (stereo not given)
EXPERIMENTAL TARGET: ACHN renal
TGI: > 100 µM
--
COMPOUND: O=C1CC(c2ccc(Cl)cc2)=Nc2ccccc2N1
EXPERIMENTAL TARGET: ACHN renal
TGI: > 100 µM
--
COMPOUND: CCN(/C=C1/C(=O)C(c2ccccc2)N(c2ccccc2)C1=O)CC (stereo not given)
EXPERIMENTAL TARGET: ACHN renal
TGI: > 10 µM
--
COMPOUND: N#Cc1c(NC(=O)C(F)(F)F)sc2c3c(=O)c4ccccc4c(=O)c=3oc3ccccc3c12
EXPERIMENTAL TARGET: ACHN renal
TGI: > 58 µM
--
COMPOUND: O=C(c1ccccc1)C1(Br)S(=O)(=O)OCCOS1(=O)=O
EXPERIMENTAL TARGET: ACHN renal
TGI: > 100 µM
--
COMPOUND: Cc1ccc(S(=O)(=O)NCCCCC(N)C(=O)O)cc1 (stereo not given)
EXPERIMENTAL TARGET: ACHN renal
TGI: > 100 µM
--
COMPOUND: C[C@@H]1CC[C@]2(C)C3(C)CC[C@]2(OC3=O)[C@@]12CC(c1ccoc1)OC2=O (stereo not given in full)
EXPERIMENTAL TARGET: ACHN renal
TGI: 43.6 µM
--
COMPOUND: C=CCC(CCC(C)=O)(C(=O)OCC)C(=O)OCC
EXPERIMENTAL TARGET: ACHN renal
TGI: > 100 µM
--
COMPOUND: CC(N)(CC(O)(C(F)(F)Cl)C(F)(F)Cl)C(=O)O (stereo not given)
EXPERIMENTAL TARGET: ACHN renal
TGI: > 10 µM
--
COMPOUND: CC(=O)NC1C(O[C@H]2C[C@H]3[C@@H]4CC=C5C[C@@H](O)CC[C@]5(C)[C@H]4CC[C@]3(C)[C@H]2[C@H](C)C(=O)CCC(C)C)OCC(O)C1O (stereo not given in full)
EXPERIMENTAL TARGET: ACHN renal
TGI: > 42.5 µM
--
COMPOUND: Cc1ccc(N=N/C(=N/NC(=O)c2ccccc2)c2ccc(N(CCC#N)CCC#N)cc2C)cc1
EXPERIMENTAL TARGET: ACHN renal
TGI: > 100 µM
--
COMPOUND: C[C@H]1CC[C@@]2(OC1)O[C@H]1C[C@H]3[C@@H]4CC[C@@H]5C[C@@H](OC6OC(CO)C(O)C(O)C6OC6OC(CO)C(O)C(O)C6O)CC[C@]5(C)[C@H]4CC[C@]3(C)[C@H]1[C@@H]2C (stereo not given in full)
EXPERIMENTAL TARGET: ACHN renal
TGI: 3.82 µM
--
COMPOUND: COc1ccccc1Oc1nccc(-c2c(-c3ccc(F)cc3)ncn2C2CCNCC2)n1
EXPERIMENTAL TARGET: ACHN renal
TGI: > 25 µM
--
COMPOUND: CCCCS(=O)c1sc2nc(-c3cccs3)cc(-c3ccccc3)c2c1N (stereo not given)
EXPERIMENTAL TARGET: ACHN renal
TGI: > 95.3 µM
--
COMPOUND: CCCCCC(=O)O[C@]1(C(C)=O)CCC2C3CCC4=CC(=O)CC[C@]4(C)C3CC[C@@]21C (stereo not given in full)
EXPERIMENTAL TARGET: ACHN renal
TGI: 11.6 µM
--
COMPOUND: COC(=O)/C=C/c1ccc(OP(=O)(O)O)c(OC)c1
EXPERIMENTAL TARGET: ACHN renal
TGI: > 100 µM
--
COMPOUND: O=C(c1ccc(Cl)cc1)N(C(=O)N1CCCCC1)c1ccccc1
EXPERIMENTAL TARGET: ACHN renal
TGI: > 100 µM
--
COMPOUND: CCOC(=O)/C(=C/c1ccccn1)C(=O)c1ccccc1
EXPERIMENTAL TARGET: ACHN renal
TGI: > 56.2 µM
--
COMPOUND: O=C1C2C3C=CC(C2C(=O)N1CO)C1C2C(=O)N(CO)C(=O)C2C31 (stereo not given)
EXPERIMENTAL TARGET: ACHN renal
TGI: > 66.6 µM
--
COMPOUND: O=C1CC(c2cccc(Cl)c2)Nc2ccc(N3CCCC3)cc21 (stereo not given)
EXPERIMENTAL TARGET: ACHN renal
TGI: > 100 µM
--
COMPOUND: Cc1[nH]n(-c2nc3c(c(=O)[nH]2)CCCC3)c(=O)c1CCO
EXPERIMENTAL TARGET: ACHN renal
TGI: > 100 µM
--
COMPOUND: COC(=O)c1cc2c(cc1Cl)Sc1nnc(Nc3ccccc3)n1S2(=O)=O
EXPERIMENTAL TARGET: ACHN renal
TGI: 4.16 µM
--
COMPOUND: COc1ccc(/C(Nc2ccccc2)=C(\CCl)c2ccccc2)cc1OC
EXPERIMENTAL TARGET: ACHN renal
TGI: > 100 µM
--
COMPOUND: COc1cc2nc(Cl)nc(NS(=O)(=O)c3cc4ccccc4s3)c2cc1OC
EXPERIMENTAL TARGET: ACHN renal
TGI: 99.6 µM
--
COMPOUND: ClCCOCCn1cnc2c(Cl)nc(Cl)nc21
EXPERIMENTAL TARGET: ACHN renal
TGI: 27.5 µM
--
COMPOUND: CCN(CC)CCNc1ccc([N+](=O)[O-])c2nc3ccc(OC)cc3c(NCCN(CC)CC)c12
EXPERIMENTAL TARGET: ACHN renal
TGI: > 10 µM
--
COMPOUND: CCOC(=O)c1ccc(N=Nc2ccc(N(CCC#N)CCC#N)cc2C)cc1
EXPERIMENTAL TARGET: ACHN renal
TGI: > 100 µM

---

Entries annotated with measured TGI
Test system: SNB-19 CNS
PROCEDURE DETAILS: NCI tumour cell line growth inhibition, 48 h

MOLECULE: CCN(CC)CCNc1ccc2ncn3c4ccc(O)cc4c(=O)c1c23
TGI: 19.2 µM
--
MOLECULE: CCc1cccc(CC)c1NC(=O)/C(Cl)=C(/Cl)C(=O)O
TGI: > 100 µM
--
MOLECULE: c1ccc(C(c2ccccc2)c2ccccn2)cc1
TGI: > 100 µM
--
MOLECULE: CC1(C)O[C@@H]2[C@@H](COC(C)(C)O[C@H]2C2SCCCS2)O1
TGI: > 100 µM
--
MOLECULE: O=c1[nH]c(N/N=C\C(O)C(O)C(O)C(O)CO)nc2ccccc12 (stereo not given)
TGI: > 100 µM
--
MOLECULE: O=C1C2C3C=CC(C2C(=O)N1CO)C1C2C(=O)N(CO)C(=O)C2C31 (stereo not given)
TGI: > 100 µM
--
MOLECULE: Cc1ccccc1C(CCCO)C(=O)O (stereo not given)
TGI: > 100 µM
--
MOLECULE: COc1cc(-c2nccc3[nH]c(-c4ccc5cc[nH]c5c4)nc23)cc(OC)c1OC
TGI: 15.8 µM
--
MOLECULE: CN(C)c1ccc(-c2cc(-c3ccc(Nc4nc(Nc5ccc(Cl)cc5)nc(Nc5ccc(Cl)cc5)n4)cc3)nc(N)c2C#N)cc1
TGI: > 100 µM
--
MOLECULE: COc1ccc(/C=C2\CCC/C(=C\c3ccc(OC)c(OC)c3)C2=O)cc1OC
TGI: > 32.5 µM
